# Test: Half life in beagle dog at 10 mg/kg, po measured upto 24 hrs upto 24 hrs by LC-MS/MS analysis
# Format: ADME, organism-based, Canis lupus familiaris
# Particulars: in vivo
Value type: half-life (h)
Give the quantity in h, number only.

- Smiles code: "[2H]C([2H])([2H])NC1=NC(=O)[C@]2(CCc3ncccc32)c2cc(C(F)(F)F)ccc21"
  Value units: "h"
  half-life: 6.09

# half-life (molecule: [2H]C([2H])([2H])NC1=NC(=O)[C@]2(CCc3ncccc32)c2cc(C(C)(F)F)ccc21 ) is 4.47

====

# Test: Lipophilicity, log D of compound at pH 7.4 byHPLC method
# Type: physicochemical
# Particulars: buffer
logD vs 2: at or above is True, below is False.

- Compound: "[2H]C([2H])([2H])NC1=NC(=O)[C@]2(CCc3ncccc32)c2cc(C3CC3)ccc21"
  Qualitative label: "False"

Asked: Does the reported logD for CN(C)C1=NC(=O)C2(CCc3ncccc32)c2cc(C(F)(F)F)ccc21 (racemic) fall at or above the 2 mark?
Given back: True

Asked: Does the reported logD for COc1cc(NC2=NC(=O)C3(CCc4ncccc43)c3cc(C(F)(F)F)ccc32)ccn1 (racemic) fall at or above the 2 mark?
Given back: True

====

# Assayed target: UniProt:P08684
# Sequence (P08684 whole entry): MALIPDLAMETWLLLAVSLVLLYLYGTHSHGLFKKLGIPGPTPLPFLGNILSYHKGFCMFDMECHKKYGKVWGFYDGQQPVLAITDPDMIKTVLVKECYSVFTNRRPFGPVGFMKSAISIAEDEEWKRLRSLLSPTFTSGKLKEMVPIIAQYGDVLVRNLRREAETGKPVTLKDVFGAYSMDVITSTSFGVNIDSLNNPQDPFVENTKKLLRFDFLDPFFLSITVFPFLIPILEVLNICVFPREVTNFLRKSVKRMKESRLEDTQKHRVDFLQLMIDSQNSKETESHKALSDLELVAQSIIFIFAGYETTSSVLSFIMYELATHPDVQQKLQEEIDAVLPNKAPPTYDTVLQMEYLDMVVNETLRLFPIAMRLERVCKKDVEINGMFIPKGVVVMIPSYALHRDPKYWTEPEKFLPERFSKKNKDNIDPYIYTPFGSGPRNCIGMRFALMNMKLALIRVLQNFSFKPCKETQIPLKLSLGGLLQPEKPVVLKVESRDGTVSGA
# Test: Inhibition of CYP3A4 (unknown origin)
# Type: ADME
pIC50: −log10 of the molar value.
Value type: pIC50

# pIC50 (compound: [2H]C([2H])([2H])NC1=NC(=O)[C@]2(CCc3ncccc32)c2cc(C(C)(F)F)ccc21 ) is < 5.00

# pIC50 (compound: [2H]C([2H])([2H])NC1=NC(=O)[C@]2(CCc3ncccc32)c2cc(C(F)(F)F)ccc21 ) is < 5.00

====

# Test: Lipophilicity, log P of the compound
# Assay type: physicochemical
# Particulars: octanol/water
Below is a list of entries, each paired with its recorded logP value.
Returns: the value as a bare number; no unit string appended.

- Smiles code: "[2H]C([2H])([2H])NC1=NC(=O)[C@]2(CCc3ncccc32)c2cc(C(C)(F)F)ccc21"
  logP: 1.65

Pending compound:
# logP (compound: [2H]C([2H])([2H])NC1=NC(=O)[C@]2(CCc3ncccc32)c2cc(C(F)(F)F)ccc21 ) is 1.85

====

# Test: AUC (0 to infinity) in male ICR mouse at 10 mg/kg, po and 2 mg/kg, iv measured upto 24 hrs
# Type: ADME, organism-based
# Particulars: in vivo
Below is a list of entries, each paired with its recorded AUC(0-inf) value.
Give the quantity in ng·h/mL, number only.

# AUC(0-inf) (compound: [2H]C([2H])([2H])NC1=NC(=O)C2(CCc3ncccc32)c2cc(C(F)(F)F)ccc21 (racemic) ) is 56700

# AUC(0-inf) (compound: [2H]C([2H])([2H])NC1=NC(=O)[C@]2(CCc3ncccc32)c2cc(C(F)(F)F)ccc21 ) is 39600

# AUC(0-inf) (compound: NC1=NC(=O)C2(CCc3ncccc32)c2cc(C(F)(F)F)ccc21 (racemic) ) is 20400

# AUC(0-inf) (compound: [2H]C([2H])([2H])NC1=NC(=O)[C@]2(CCc3ncccc32)c2cc(C3CC3)ccc21 ) is 22000
